Consider the following molecules; for each one, report its log10 IC50.
System: HL60
Test: MTT cell proliferation test, cytotoxicity on HL60 leukemia cells
Type: cell-based, human
Settings: Blood, HL60, 72 hrs incubation, MTT; read-out: IC50 μmole/L, after 72 hrs incubation time
// do not treat as linear: log10 of IC50, unit µmol/L

Look at this molecule and give its reported log10 IC50. CCc1c2c(nc3ccc(O)c(CN4CCC4)c13)-c1cc3c(c(=O)n1[C@@H]2CO)COC(=O)[C@]3(O)CC -0.96

Look at this molecule and give its reported log10 IC50. CCc1c2c(nc3ccc(O)cc13)-c1cc3c(c(=O)n1[C@H]2CO)COC(=O)C3(O)CC (some centres unmarked) -0.14

Look at this molecule and give its reported log10 IC50. CCc1c2c(nc3ccc(O)cc13)-c1cc3c(c(=O)n1[C@H]2CN1CCCC1)COC(=O)[C@]3(O)CC -1.96

Look at this molecule and give its reported log10 IC50. CCc1c2c(nc3ccc(O)c(CN4CCC4)c13)-c1cc3c(c(=O)n1C2)COC(=O)C3(O)CC (centres unmarked) [CC1, reference compound] -1.92

Look at this molecule and give its reported log10 IC50. CCc1c2c(nc3ccc(O)cc13)-c1cc3c(c(=O)n1[C@@H]2CO)COC(=O)[C@]3(O)CC 0.28

Look at this molecule and give its reported log10 IC50. CCc1c2c(nc3ccc(O)cc13)-c1cc3c(c(=O)n1[C@@H]2CN1CCCC1)COC(=O)C3(O)CC (some centres unmarked) -2.15

Look at this molecule and give its reported log10 IC50. CCc1c2c(nc3ccc(O)c(CN4CCC4)c13)-c1cc3c(c(=O)n1[C@H]2CO)COC(=O)C3(O)CC (some centres unmarked) -0.48

Look at this molecule and give its reported log10 IC50. CCc1c2c(nc3ccc(O)cc13)-c1cc3c(c(=O)n1C2)COC(=O)[C@]3(O)CC [SN38, 7-ethyl-10-hydroxycamptothecin] -2.70

* * *

Consider the following compounds; for each one, report its pIC50.
Tested on: HT29
Assay: MTT cell proliferation test, cytotoxicity on HT29 colon cancer cells
Type: cell-based
Details: HT29, 72 hrs incubation, read-out: IC50 μmole/L, after 72 hrs incubation time
pIC50 is a log-scale quantity: -log10 of the concentration expressed in molar.

Look at this compound and give its reported pIC50. CCc1c2c(nc3ccc(O)cc13)-c1cc3c(c(=O)n1[C@@H]2CN1CCCC1)COC(=O)C3(O)CC (stereo partly shown) 6.31

Look at this compound and give its reported pIC50. CCc1c2c(nc3ccc(O)cc13)-c1cc3c(c(=O)n1C2)COC(=O)[C@]3(O)CC [SN38, 7-ethyl-10-hydroxycamptothecin] 7.70

Look at this compound and give its reported pIC50. CCc1c2c(nc3ccc(O)c(CN4CCCC4)c13)-c1cc3c(c(=O)n1C2)COC(=O)C3(O)CC (stereo not shown) [CC2, reference compound] 6.62

Look at this compound and give its reported pIC50. CCc1c2c(nc3ccc(O)cc13)-c1cc3c(c(=O)n1[C@@H]2CO)COC(=O)[C@]3(O)CC 4.83

Look at this compound and give its reported pIC50. C=c1c2c(CC)c3cc(O)ccc3nc2c2cc3c(c(=O)n12)COC(=O)C3(O)CC (stereo not shown) 6.82

Look at this compound and give its reported pIC50. CCc1c2c(nc3ccc(O)cc13)-c1cc3c(c(=O)n1[C@H]2CO)COC(=O)C3(O)CC (stereo partly shown) 5.02

Look at this compound and give its reported pIC50. CCc1c2c(nc3ccc(O)cc13)-c1cc3c(c(=O)n1[C@H]2CN1CCCC1)COC(=O)[C@]3(O)CC 6.22
